- Experimental target: human CB1 receptor (Homo sapiens)
- Construct: expressed in transfected cells; host or cells: HEK293
- Sequence (P21554 whole entry): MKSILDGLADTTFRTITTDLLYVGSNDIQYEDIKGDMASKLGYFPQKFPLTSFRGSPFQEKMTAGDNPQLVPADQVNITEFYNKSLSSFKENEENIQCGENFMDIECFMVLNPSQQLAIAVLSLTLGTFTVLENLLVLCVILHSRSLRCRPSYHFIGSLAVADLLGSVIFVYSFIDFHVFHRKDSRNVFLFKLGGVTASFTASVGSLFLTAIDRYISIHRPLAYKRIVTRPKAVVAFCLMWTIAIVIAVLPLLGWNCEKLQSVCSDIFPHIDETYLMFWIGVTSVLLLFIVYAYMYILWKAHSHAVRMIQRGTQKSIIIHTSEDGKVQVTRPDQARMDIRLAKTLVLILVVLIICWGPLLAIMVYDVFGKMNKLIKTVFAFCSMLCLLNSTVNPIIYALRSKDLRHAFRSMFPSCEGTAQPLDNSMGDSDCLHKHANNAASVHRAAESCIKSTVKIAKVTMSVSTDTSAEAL
- Test details: bioSensAll β-arrestin2 plasma membrane translocation (+GRK2) BRET biosensor assay in HEK293 cells transfected with hCB1; test compound added before EC75-80 of agonist CP55,940 (100 nM)
- Format: cell-based
- Measurement context: βArrestin2 (+GRK2) BRET biosensor, vs CP55,940 100 nM (EC75-80), read-out: CB1 wt βarr2 IC50
Measurement type: IC50 (nM)
Kindly answer with a numeric value in nM, unit omitted.

Give IC50 for Cc1cccnc1-c1nc2c(N3CCC(C)(C(N)=O)CC3)nc(N(C)CCO)nc2n1-c1ccc(Cl)cc1 tested on human CB1 receptor (Homo sapiens).
64.3

Specify IC50 for CCOC1(C(N)=O)CCN(c2nc(OCC(C)(C)O)nc3c2nc(-c2ccc(C#N)nc2)n3-c2ccc(Cl)cc2)CC1 , system human CB1 receptor (Homo sapiens).
25.4

Report IC50 on human CB1 receptor (Homo sapiens) for this entry: CN(CCO)c1nc(N2CCC(F)(F)CC2)c2nc(-c3ccccc3Cl)n(-c3ccc(Cl)cc3)c2n1
0.889

Check human CB1 receptor (Homo sapiens) data and give IC50 for CN(CCO)c1nc(N2CCC(C(F)(F)F)CC2)c2nc(-c3ccccc3Cl)n(-c3ccc(Cl)cc3)c2n1 .
1.53

For human CB1 receptor (Homo sapiens), give IC50 of the listed compound: C[C@H](O)CN(C)c1nc(N2CCC(C)(C(N)=O)CC2)c2nc(-c3ccccc3Cl)n(-c3ccc(Cl)cc3)c2n1
4.58

Provide the reported IC50 (system: human CB1 receptor (Homo sapiens)) for CCNC1(C(N)=O)CCN(c2nc(N3CCC(CO)C3)nc3c2nc(-c2ccccc2Cl)n3-c2ccc(Cl)cc2)CC1 (stereo not shown)
1.29

Under human CB1 receptor (Homo sapiens), report IC50 for OC[C@@H]1CCCN1c1nc(N2CCC(C(F)(F)F)CC2)c2nc(-c3ccccc3Cl)n(-c3ccc(Cl)cc3)c2n1 [Compound 35]
3.3
